- System: Clostridium sporogenes DSM 1664
- experiment.description: fold change of Tryptamine concentration vs plate DMSO controls (fold change (ratio)); higher = more amine produced, active = hit call of the paper (significant change in both replicates, either direction);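 for the amine columns active = adjusted P below 0.05 in both replicates with a change the same way and a mean fold change under 0.8 or over 1.25; inactive = the rest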
- measurement.conditions: incubation time: 27 h, anaerobic, 37 °C
Structures can show the parent of a compound that is named as a salt.
Can you answer with just one of these options? active, inactive

Example cases with answers are listed next.
Q: Could you check what this test reported for CCOCC(O)COc1ccc(NC(=O)CC[S+](C)C)cc1 (configuration not stated) [Suplatast Tosylate] (20 µM) ?
A: inactive

Q: Could you check what this test reported for COc1ccc(CC(C)NCC(O)c2ccc(O)c(NC=O)c2)cc1 (configuration not stated) [Formoterol fumarate] (20 µM) ?
A: inactive

Q: Could you check what this test reported for CC(/C=C1\SC(=S)N(CC(=O)O)C1=O)=C\c1ccccc1 [Epalrestat] (20 µM) ?
A: inactive

***
Q: Could you check what this test reported for CCOC(=O)n1ccn(C)c1=S [Carbimazole] (20 µM) ?
A: inactive

Q: Could you check what this test reported for CN1Cc2c(N)cccc2C(c2ccccc2)C1 (configuration not stated) [Nomifensine maleate] (20 µM) ?
A: inactive

Q: Could you check what this test reported for N=C(N)N/N=C/c1c(Cl)cccc1Cl [Guanabenz acetate] (20 µM) ?
A: inactive

Q: Could you check what this test reported for CC(C(=O)O)c1cccc(C(=O)c2ccccc2)c1 (configuration not stated) [Ketoprofen] (20 µM) ?
A: inactive

Q: Could you check what this test reported for CCCc1cc(=O)[nH]c(=S)[nH]1 [Propylthiouracil] (20 µM) ?
A: inactive

Q: Could you check what this test reported for CCOCCn1c(N2CCCN(C)CC2)nc2ccccc21 [Emedastine difumarate] (20 µM) ?
A: inactive

Q: Could you check what this test reported for Nc1ccc(S(=O)(=O)Nc2ncccn2)cc1 [Sulfadiazine] (20 µM) ?
A: inactive

Q: Could you check what this test reported for OC(Cn1cncn1)(Cn1cncn1)c1ccc(F)cc1F [Fluconazole] (20 µM) ?
A: inactive
